Molecular target: Angiotensin-converting enzyme (Oryctolagus cuniculus, UniProt P12822)
Sequence (P12822 whole entry): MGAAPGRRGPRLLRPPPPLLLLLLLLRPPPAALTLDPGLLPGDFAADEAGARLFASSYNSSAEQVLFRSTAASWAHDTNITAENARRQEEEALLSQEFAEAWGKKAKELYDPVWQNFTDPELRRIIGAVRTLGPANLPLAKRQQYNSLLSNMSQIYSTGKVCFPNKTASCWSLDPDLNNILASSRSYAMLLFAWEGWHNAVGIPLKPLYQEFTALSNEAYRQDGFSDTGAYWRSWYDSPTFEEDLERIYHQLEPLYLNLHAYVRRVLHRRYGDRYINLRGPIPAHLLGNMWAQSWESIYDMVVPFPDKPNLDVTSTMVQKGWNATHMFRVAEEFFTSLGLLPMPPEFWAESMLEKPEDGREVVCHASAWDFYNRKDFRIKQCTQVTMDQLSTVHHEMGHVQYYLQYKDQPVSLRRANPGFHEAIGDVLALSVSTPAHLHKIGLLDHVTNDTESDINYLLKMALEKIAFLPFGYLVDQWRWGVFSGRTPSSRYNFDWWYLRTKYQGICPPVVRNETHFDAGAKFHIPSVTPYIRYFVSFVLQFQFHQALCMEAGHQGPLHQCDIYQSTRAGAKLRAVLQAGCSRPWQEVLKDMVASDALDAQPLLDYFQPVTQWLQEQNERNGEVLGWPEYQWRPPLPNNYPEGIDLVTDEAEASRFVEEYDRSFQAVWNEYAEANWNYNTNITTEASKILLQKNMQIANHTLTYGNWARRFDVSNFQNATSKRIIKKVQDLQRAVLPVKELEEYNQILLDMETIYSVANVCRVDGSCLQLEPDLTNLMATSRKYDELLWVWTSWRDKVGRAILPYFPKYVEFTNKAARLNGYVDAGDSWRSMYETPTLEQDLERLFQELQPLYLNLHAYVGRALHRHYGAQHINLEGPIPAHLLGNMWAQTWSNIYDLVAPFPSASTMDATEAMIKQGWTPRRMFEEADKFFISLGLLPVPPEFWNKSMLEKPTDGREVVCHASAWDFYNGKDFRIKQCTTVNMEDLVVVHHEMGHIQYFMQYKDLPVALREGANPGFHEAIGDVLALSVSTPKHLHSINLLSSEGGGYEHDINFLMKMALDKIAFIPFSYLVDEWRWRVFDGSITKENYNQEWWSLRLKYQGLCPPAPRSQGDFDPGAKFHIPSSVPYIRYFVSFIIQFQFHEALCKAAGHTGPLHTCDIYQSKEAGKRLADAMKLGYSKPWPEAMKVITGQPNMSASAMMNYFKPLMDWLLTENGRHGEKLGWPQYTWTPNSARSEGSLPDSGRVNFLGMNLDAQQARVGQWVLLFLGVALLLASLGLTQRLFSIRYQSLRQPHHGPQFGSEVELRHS
Measurement label: log10 of IC50 (log10 of the value in µM)

>  <Compound structure>
O=C(O)CN(C(=O)c1cc(Cl)cc(Cl)c1S)C1CCCC1

>  <log10 of IC50>
0.61

$$$$
>  <Compound structure>
COc1cccc(C(=O)N(CC(=O)O)C2CCCC2)c1S

>  <log10 of IC50>
-0.42

$$$$
>  <Compound structure>
CC(=O)Sc1c(C)cccc1C(=O)N(CC(=O)O)C1CCCC1

>  <log10 of IC50>
0.34

$$$$
>  <Compound structure>
O=C(O)CN(C(=O)c1ccccc1[N+](=O)[O-])C1CCCC1

>  <log10 of IC50>
2.00

$$$$
>  <Compound structure>
Cc1cccc(C(=O)N(CC(=O)O)C2CCCC2)c1S

>  <log10 of IC50>
0.66

$$$$
>  <Compound structure>
O=C(O)CN(C(=O)c1cccc(Cl)c1S)C1CCCC1

>  <log10 of IC50>
-0.55

$$$$
>  <Compound structure>
O=C(O)CN(C(=O)c1cccc(C(F)(F)F)c1S)C1CCCC1

>  <log10 of IC50>
-0.17

$$$$
>  <Compound structure>
CC(C)c1cccc(C(=O)N(CC(=O)O)C2CCCC2)c1S

>  <log10 of IC50>
2.08

$$$$
>  <Compound structure>
CC(=O)Sc1ccc(C(=O)N(CC(=O)O)C2CCCC2)cc1

>  <log10 of IC50>
1.32

$$$$
>  <Compound structure>
O=C(O)CN(C(=O)c1cccc(S)c1)C1CCCC1

>  <log10 of IC50>
1.40

$$$$
>  <Compound structure>
O=C(O)CN(C(=O)c1cc(Cl)cc(Cl)c1O)C1CCCC1

>  <log10 of IC50>
2.00

$$$$
>  <Compound structure>
O=C(O)CN(C(=O)c1ccccc1S)C1CCCC1

>  <log10 of IC50>
0.68

$$$$

Each recorded value in this set is attributed to ChEMBL document CHEMBL1122958.
